pKd values, listed per item
Target: 5P+VTG
Test: luminescence complementation
The read-out pKd is expressed as -log10 of concentration in moles per litre.

Here are 2 binders together with their reported answers.
>  <binder>
Ac-SGWRLFKKISN-NH2 [NLpep81]

>  <pKd>
6.55

$$$$
>  <binder>
Ac-GWRLFKKISN-NH2 [NLpep82]

>  <pKd>
6.56

$$$$

Measured pKd, Ac-VSGWRLFKKISN-NH2 [NLpep80] : 8.12
